Target: ΔF508-CFTR (Homo sapiens, UniProt P13569, DEL508-508)
Construct: host or cells: CFBE41o-, doxycycline-inducible
Sequence (P13569 with tags, fused parts or gaps DEL508-508): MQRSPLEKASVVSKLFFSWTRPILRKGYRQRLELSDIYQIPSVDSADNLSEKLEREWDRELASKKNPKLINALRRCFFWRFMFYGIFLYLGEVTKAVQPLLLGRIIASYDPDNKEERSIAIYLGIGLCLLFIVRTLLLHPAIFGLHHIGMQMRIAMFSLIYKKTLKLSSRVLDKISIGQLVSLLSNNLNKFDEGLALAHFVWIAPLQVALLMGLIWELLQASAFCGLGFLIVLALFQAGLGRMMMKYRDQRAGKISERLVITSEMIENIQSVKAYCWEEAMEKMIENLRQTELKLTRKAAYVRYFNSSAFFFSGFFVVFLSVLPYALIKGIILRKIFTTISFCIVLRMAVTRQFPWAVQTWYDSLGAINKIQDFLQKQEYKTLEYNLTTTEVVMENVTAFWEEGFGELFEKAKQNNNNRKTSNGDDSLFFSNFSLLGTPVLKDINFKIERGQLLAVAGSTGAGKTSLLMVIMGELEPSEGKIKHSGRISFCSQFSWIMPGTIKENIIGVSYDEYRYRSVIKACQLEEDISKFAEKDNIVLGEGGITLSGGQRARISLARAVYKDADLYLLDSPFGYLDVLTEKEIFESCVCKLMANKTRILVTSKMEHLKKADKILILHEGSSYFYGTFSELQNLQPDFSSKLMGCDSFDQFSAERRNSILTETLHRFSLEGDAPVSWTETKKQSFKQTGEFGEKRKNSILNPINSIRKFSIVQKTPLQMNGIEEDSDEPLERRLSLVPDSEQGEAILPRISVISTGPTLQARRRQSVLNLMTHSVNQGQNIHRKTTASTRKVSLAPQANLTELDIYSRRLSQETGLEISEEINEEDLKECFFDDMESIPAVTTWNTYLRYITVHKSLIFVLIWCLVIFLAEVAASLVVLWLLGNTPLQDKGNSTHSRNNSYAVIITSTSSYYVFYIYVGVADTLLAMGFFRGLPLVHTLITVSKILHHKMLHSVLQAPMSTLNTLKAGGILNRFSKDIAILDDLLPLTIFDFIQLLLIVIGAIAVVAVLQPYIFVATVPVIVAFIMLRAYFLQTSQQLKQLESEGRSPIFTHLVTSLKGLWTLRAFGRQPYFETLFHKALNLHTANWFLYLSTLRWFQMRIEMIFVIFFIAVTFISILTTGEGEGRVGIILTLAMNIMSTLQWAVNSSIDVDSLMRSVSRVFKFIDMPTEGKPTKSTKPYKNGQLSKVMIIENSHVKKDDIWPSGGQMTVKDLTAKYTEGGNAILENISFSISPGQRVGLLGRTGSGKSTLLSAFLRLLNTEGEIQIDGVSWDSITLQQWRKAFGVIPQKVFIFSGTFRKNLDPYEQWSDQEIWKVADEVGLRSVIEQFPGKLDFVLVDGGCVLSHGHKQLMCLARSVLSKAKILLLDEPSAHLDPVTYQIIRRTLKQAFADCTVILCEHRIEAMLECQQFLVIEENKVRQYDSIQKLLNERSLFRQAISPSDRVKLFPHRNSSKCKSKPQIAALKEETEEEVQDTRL
Test: CFTR cell surface levels using HRP-tagged ΔF508-CFTR expressing CFBE cells, in the presence of a co-corrector
Format: cell-based
Details: HRP-tagged ΔF508-CFTR CFBE cells, in the presence of 3 μM co-corrector
Source text: Measuring CFTR Cell Surface Levels Using HRP-Tagged ΔF508-CFTR Expressing CFBE Cells The HRP-tagged ΔF508-CFTR cell assay measures the expression of CFTR-ΔF508 at the plasma membrane. […] When HRP-tagged ΔF508-CFTR is present at the plasma membrane, the HRP enzyme activity can be measured. The amount of CFTR-ΔF508 that can be rescued to the plasma membrane is correlated with the amount of functional enzyme that can be measured. […]
result_type: % Activation (%)
Give the value in % but do not write % after it.

Solved cases below.
{"molecule": "COC1CCCN(c2cc(C(=O)NS(C)(=O)=O)nc3c2c(C(C)C)nn3-c2cccc(C)c2)C1 (stereo not shown)", "assayed_system": "ΔF508-CFTR (Homo sapiens, UniProt P13569, DEL508-508)", "unit": "%", "% Activation": 331.53}
{"molecule": "CN(C)S(=O)(=O)NC(=O)c1cc(N2CCC(N3CCOCC3)CC2)c2c(C3CCC3)nn(-c3ccc4c(c3)OC(F)(F)O4)c2n1", "assayed_system": "ΔF508-CFTR (Homo sapiens, UniProt P13569, DEL508-508)", "unit": "%", "% Activation": 424.77}
{"molecule": "COC(=O)N1CCC2CN(c3cc(C(=O)NS(C)(=O)=O)nc4c3c(C3CCC3)nn4-c3ccccc3)CCC21 (stereo not shown)", "assayed_system": "ΔF508-CFTR (Homo sapiens, UniProt P13569, DEL508-508)", "unit": "%", "% Activation": 569.35}
{"molecule": "COCC1CCN(c2cc(C(=O)NS(C)(=O)=O)nc3c2c(C(C)C)nn3C2CCCCC2)CC1", "assayed_system": "ΔF508-CFTR (Homo sapiens, UniProt P13569, DEL508-508)", "unit": "%", "% Activation": 476.9}
{"molecule": "CCCN(C)S(=O)(=O)NC(=O)c1cc(OCC2CCOCC2)c2c(C3CCC3)nn(-c3ccccc3)c2n1", "assayed_system": "ΔF508-CFTR (Homo sapiens, UniProt P13569, DEL508-508)", "unit": "%", "% Activation": 351}
{"molecule": "COCCS(=O)(=O)NC(=O)c1cc(N2CCC(N3CCCCC3)CC2)c2c(C3CCC3)nn(-c3ccc(F)cc3)c2n1", "assayed_system": "ΔF508-CFTR (Homo sapiens, UniProt P13569, DEL508-508)", "unit": "%", "% Activation": 488.15}

INPUT: # return recorded % Activation for input CC(C)N1CCC(c2cc(C(=O)NS(=O)(=O)N(C)C)nc3c2c(C2CCC2)nn3-c2ccc(F)cc2)CC1
OUTPUT: 153.9

----------
target: ΔF508-CFTR (Homo sapiens, UniProt P13569, DEL508-508); construct: host or cells: CFBE41o-, doxycycline-inducible; assay: CFTR cell surface levels using HRP-tagged ΔF508-CFTR expressing CFBE cells, in the presence of a co-corrector; format: cell-based; settings: HRP-tagged ΔF508-CFTR CFBE cells, in the presence of 3 μM co-corrector; read-out: EC50
pEC50: −log10 of the molar value.
# label = Condition met if pEC50 >= 7 else Condition not met

{"structure_smiles_string": "Cc1nn(-c2ccccc2)c2nc(C(=O)NS(C)(=O)=O)cc(-c3ccc(N(C)C)cc3)c12", "class_assignment": "Condition not met"}
{"structure_smiles_string": "COCCN(C)c1ncc(-c2cc(C(=O)NS(C)(=O)=O)nc3c2c(C(C)C)nn3C2CCCCC2)cn1", "class_assignment": "Condition not met"}
{"structure_smiles_string": "COC1CCN(c2cc(C(=O)NS(=O)(=O)CC(F)(F)F)nc3c2c(C2CCC2)nn3-c2ccccc2)CC1", "class_assignment": "Condition not met"}
{"structure_smiles_string": "CN(C)S(=O)(=O)NC(=O)c1cc(N2CCC(N3CCN(C4CC4)CC3)CC2)c2c(C3CCC3)nn(-c3ccc(F)cc3)c2n1", "class_assignment": "Condition met"}

We next turn to a different compound, shown below.
INPUT: In plain terms: is recorded pEC50 at least 7 for CC(C)N1CCN(c2ccc(-c3cc(C(=O)NS(=O)(=O)N(C)C)nc4c3c(C3CCC3)nn4C3CCCCC3)cn2)CC1 ?
OUTPUT: Condition not met
